Just for reference, paper PMC9820559 is where these values come from.

Biological target: RSV N-RNA complex (Human respiratory syncytial virus A, UniProt P03418)
Construct: Full-length N was produced by co-expression with the C-terminal domain of RSV P protein in E. coli BL21(DE3); made in house; host or cells: E. coli BL21(DE3), co-transformed with pET-N and pGEX-P(161–241)
Sequence (P03418 whole entry, looked up, the tested form may be a part, one chain of several): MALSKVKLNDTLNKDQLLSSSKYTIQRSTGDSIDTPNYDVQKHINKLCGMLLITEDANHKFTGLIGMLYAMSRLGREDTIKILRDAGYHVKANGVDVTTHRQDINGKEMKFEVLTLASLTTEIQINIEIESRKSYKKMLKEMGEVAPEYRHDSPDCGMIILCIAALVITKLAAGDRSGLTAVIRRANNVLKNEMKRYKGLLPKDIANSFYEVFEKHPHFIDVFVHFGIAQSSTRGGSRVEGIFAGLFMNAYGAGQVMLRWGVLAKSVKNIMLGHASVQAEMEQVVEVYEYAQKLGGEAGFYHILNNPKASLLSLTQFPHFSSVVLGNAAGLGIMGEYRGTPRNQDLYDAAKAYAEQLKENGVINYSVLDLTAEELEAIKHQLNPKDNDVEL
Test: Fluorescence polarization inhibition of N-RNA binding to fluorescent probes
Details: fluorescent probe F11 200 nM, 10 µM N-RNA; from IC50 and Kd 7.6 µM with IC50-to-Ki server; read-out: Ki
pKi: −log10 of the molar value.
experimentalReadout: pKi

INSERT INTO results (chemicalstring, experimentalreadout, recordedresult) VALUES
  ('O=C(O)c1cc(C(=O)O)n(Cc2ccc(Cl)cc2Cl)n1', 'pKi', 5.52);

====

Biological target: RSV N-RNA complex (Human respiratory syncytial virus A)
Construct: Full-length N was produced by co-expression with the C-terminal domain of RSV P protein in E. coli BL21(DE3); made in house; host or cells: E. coli BL21(DE3), co-transformed with pET-N and pGEX-P(161–241)
Assay: Fluorescence polarization inhibition of N-RNA binding to fluorescent probes
Settings: probe BCN11SE, [N-RNA] 5 µM; IC50-to-Ki server; read-out: Ki
experimentalReadout: Ki

INSERT INTO assay_data (chemicalstring, recordedresult) VALUES
  ('O=C(O)c1cc(C(=O)O)n(Cc2ccc(Cl)cc2Cl)n1', '1.8 µM');
